From: patent US4350705A

experiment: Acute Toxicity: LD50 in rats of the SD series, 14 days observation; format: in vivo; conditions: rat, in vivo, ip, abdominal administration, male, read-out: LD50, Abdominal Administration, male
Quick list: LD50 at 336 h per entry.

Cc1ccc(C2CC(=O)C(C(=O)CCc3ccc4c(c3)OCO4)C(=O)C2)cc1 (stereo not drawn) [drawing 34]	> 500 mg/kg
O=C(Cc1ccccc1)C1C(=O)CC(c2ccccc2)CC1=O (stereo not drawn) [drawing 35]	> 500 mg/kg

Now for another entry.
q: Return value of LD50 at 336 h for input O=C(CCc1ccc2c(c1)OCO2)C1C(=O)CC(c2ccccc2)CC1=O (stereo not drawn) [drawing 33] , no commentary.
a: > 500 mg/kg
